Origin of the recorded values: the supplement of paper PMC12338614

B1: library; numbered along this chain (parent)
chain: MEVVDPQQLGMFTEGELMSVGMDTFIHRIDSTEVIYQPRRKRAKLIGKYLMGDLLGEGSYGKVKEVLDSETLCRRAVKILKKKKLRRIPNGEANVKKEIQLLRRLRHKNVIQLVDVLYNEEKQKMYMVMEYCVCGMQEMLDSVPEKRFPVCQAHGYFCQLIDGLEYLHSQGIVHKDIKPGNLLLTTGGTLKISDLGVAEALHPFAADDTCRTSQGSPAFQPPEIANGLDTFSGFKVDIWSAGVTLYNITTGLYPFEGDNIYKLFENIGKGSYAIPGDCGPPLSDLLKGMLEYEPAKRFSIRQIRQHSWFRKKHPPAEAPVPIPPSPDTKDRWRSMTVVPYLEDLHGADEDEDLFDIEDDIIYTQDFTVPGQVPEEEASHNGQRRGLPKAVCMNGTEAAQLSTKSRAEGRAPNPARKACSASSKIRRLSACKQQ

# Variants of: B1
# Method Description: STK11 functional score (HeLa growth suppression), rescaled enrichment; synonymous median = 1, nonsense median = 0 (normalised score)
# Experimental Setup: with HeLa; variant type: missense
List of STK11 functional score values.
Lab note: jot the number down without any unit.

Per the records, this variant ( "P324D" ) has STK11 functional score equal to 1.57

Reported STK11 functional score ( "N393K" ) = 0.96

Documented STK11 functional score of "G227M" : 1.69

Value of measured STK11 functional score for the entry "S59G" : 1.65

// field: STK11 functional score; key: "I161T" ; value = 1.31

variant "E70S" , STK11 functional score observed: 0.896

According to the records, this variant "R310G" displays STK11 functional score of 0.764

What the record says about "S401V" : STK11 functional score is 1.41

Measured STK11 functional score, "I172V" : 1.21

variant "L344F" , STK11 functional score observed: 0.831
